# target_entity: UniProt P0DPI0
# Sequence (P0DPI0 2-448 limits assumed): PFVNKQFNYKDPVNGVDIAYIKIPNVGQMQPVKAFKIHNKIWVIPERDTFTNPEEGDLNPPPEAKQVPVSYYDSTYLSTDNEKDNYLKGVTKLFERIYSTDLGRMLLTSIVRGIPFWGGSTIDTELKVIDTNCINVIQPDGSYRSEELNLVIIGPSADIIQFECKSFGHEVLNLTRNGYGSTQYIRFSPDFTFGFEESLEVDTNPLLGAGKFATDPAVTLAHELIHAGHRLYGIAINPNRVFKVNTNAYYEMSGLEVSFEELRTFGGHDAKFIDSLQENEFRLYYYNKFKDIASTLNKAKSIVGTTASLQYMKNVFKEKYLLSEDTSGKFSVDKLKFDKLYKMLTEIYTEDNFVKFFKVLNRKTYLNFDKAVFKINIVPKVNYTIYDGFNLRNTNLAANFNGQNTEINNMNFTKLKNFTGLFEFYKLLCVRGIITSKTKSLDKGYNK
pKi: −log10 of the molar value.
quantity_measured: pKi

Q: Lookup: pKi / UniProt P0DPI0 / "O=C(Cc1sc(N2CCCC2)nc1O)NO"
Result: < 3.52
